Tested on: MDA-MB-231 breast
Assay: NCI tumour cell line growth inhibition, 48 h
The compounds listed here are annotated with their TGI.

// worked examples, TGI included
Compound	Experimental target	Measured result
COC(=O)Cc1cc2c(cc1C(=O)c1ccc(N)cc1)OCO2	MDA-MB-231 breast	> 30.9 µM
COc1cc(-c2nccn2-c2ccc3ccccc3c2)cc(OC)c1OC	MDA-MB-231 breast	22.6 µM
CC#CC(O)(C(=O)OC1CCC2CCC1N2C)C1CCCC1 (stereo not given)	MDA-MB-231 breast	> 100 µM
COC1=C(OC)C(=O)C(CCCCCCCCCC[P+](c2ccccc2)(c2ccccc2)c2ccccc2)=C(C)C1=O	MDA-MB-231 breast	1.48 µM

TGI in this record for c1csc(-c2cc(-c3ccsc3)c(-c3ccsc3)s2)c1 : > 100 µM

---

System: A498 renal
Test: NCI tumour cell line growth inhibition, 48 h
The molecules listed here are annotated with their TGI.
Numbers only here, please. The scale is µM.

// worked examples, TGI included
Molecule	U	Measured result
O=C(Nc1ccc2[nH]c3ccccc3c2c1)c1ccccc1Cl	µM	9.19
COc1cc2c(c(OC)c1OC)-c1ccc(SC)c(=O)cc1[C@@H](NCc1ccccc1[N+](=O)[O-])CC2	µM	0.0283
COc1ccc(/C(C)=C(\c2ccc(Cl)cc2)c2ccc(OCCN3CCCCC3)cc2)cc1	µM	10.4

TGI in this record for O=C1/C(=C/c2ccccc2)CN(C(=O)CCN2CCC(=NO)CC2)C/C1=C\c1ccccc1 : 3.9

TGI in this record for CC1CCC2C(C)(C)CC3(C)CCC1C23O (stereo not given) : 36.7

---

The compounds listed here are annotated with their TGI.
Tested on: IGROV1 ovarian
Experiment: NCI tumour cell line growth inhibition, 48 h

TGI in this record for CC(C)(C)COC1C2(OCCO2)C2CCC1(C)C2(C)C (stereo not drawn) : > 100 µM

TGI in this record for Clc1ccc(C(Cn2ccnc2)OCc2ccsc2Cl)c(Cl)c1 (stereo not drawn) : 14 µM

TGI in this record for S=C(S)NCCNC(=S)S.[Cu+2] : > 100 µM

---

Test system: BT-549 breast
Test: NCI tumour cell line growth inhibition, 48 h
Property label: TGI (µM)
Numbers only here, please. The scale is µM.

// worked examples, TGI included
Compound	U	Measured result
COc1cccc2[nH]c3c4c(c5c(c3c12)C(=O)N(CN1CCN(C)CC1)C5=O)CCC4	µM	99.1
COc1ccc2c(c1)n([O-])c1cc(C#N)ccc1[n+]2=O	µM	51.6
O=C1/C(=C\c2cccc(Oc3ccccc3)c2)SC(c2ccccc2)N1c1ccccc1Cl (configuration not stated)	µM	96.6
Clc1ccc2c(N3CCN(c4ccnc(NC5CCCCC5)n4)CC3)ccnc2c1	µM	3.31

TGI in this record for CN(C)CCn1c(=O)c2ccc(NCCCN(C)CCCNc3ccc4c(=O)n(CCN(C)C)c(=O)n5c6ccccc6c(=O)c3c45)c3c(=O)c4ccccc4n(c1=O)c23 : 1.75

TGI in this record for Clc1ccc(C(Cn2ccnc2)OCc2ccsc2Cl)c(Cl)c1 (configuration not stated) : 9.01

TGI in this record for CCC(=O)Nc1ccc(NCC(=O)Nc2ccc(Cl)cc2)cc1 : 48.6

---

Tested on: SK-MEL-5 melanoma
Assay: NCI tumour cell line growth inhibition, 48 h
# label = y if TGI >= 8 µM else n

### Prompt Could you tell me if the measured TGI of CCCCCC(=O)Nc1n[nH]nc1C#N reaches 8 µM or more?
### Response y

### Prompt Could you tell me if the measured TGI of CC(C)(C)c1ccc(O)c(CN(Cc2c(O)ccc3ccccc23)C2CCCCC2)c1 reaches 8 µM or more?
### Response y

### Prompt Could you tell me if the measured TGI of OCCCCC#Cc1ccccc1C#Cc1ccccn1 reaches 8 µM or more?
### Response y

### Prompt Could you tell me if the measured TGI of CCCCCCCCCCC(=O)CC(=O)c1c(O)cccc1O reaches 8 µM or more?
### Response y

### Prompt Could you tell me if the measured TGI of S=C(S)NCCNC(=S)S.[Cu+2] reaches 8 µM or more?
### Response y

### Prompt Could you tell me if the measured TGI of C=C(Cl)C(Cl)(CBr)CCCC(C)(C)Cl (stereo unspecified) reaches 8 µM or more?
### Response y

### Prompt Could you tell me if the measured TGI of CCNCCCNc1c2ccccc2nc2ccccc12 reaches 8 µM or more?
### Response n

### Prompt Could you tell me if the measured TGI of COc1cc2c(/C=C3/C(=O)Nc4c3ccc3ccccc43)c(Cl)n(C)c2cc1C reaches 8 µM or more?
### Response n

### Prompt Could you tell me if the measured TGI of C=CC(=O)N1CCN(CCCn2c(=O)c(-c3c(Cl)c(OC)cc(OC)c3Cl)cc3cnc(NC)nc32)CC1 reaches 8 µM or more?
### Response y

### Prompt Could you tell me if the measured TGI of O=c1cc(-c2ccccc2)nc(-n2[nH]c3c(c2=O)CCCC3)[nH]1 reaches 8 µM or more?
### Response y

### Prompt Could you tell me if the measured TGI of C[C@]12CC[C@@H]3c4ccc(O)cc4CC[C@H]3[C@@H]1CC[C@@H]2NS(=O)(=O)c1ccc(Cl)cc1 reaches 8 µM or more?
### Response n

### Prompt Could you tell me if the measured TGI of COc1cc(/C=C(\NC(=O)c2ccccc2)c2nc3[nH]c(=S)[nH]c(=O)c3[nH]2)cc(OC)c1OC reaches 8 µM or more?
### Response y

---

The compounds listed here are annotated with their TGI.
Test system: K-562 leukemia
Experiment: NCI tumour cell line growth inhibition, 48 h
Where a SMILES comes first, the peptide text is derived from it. [ ]: non-standard residue; d: D form.

// worked examples, TGI included
Compound	TGI
CC(C)(C)/C(O)=C\c1nc2ccc(C(F)(F)F)cc2[nH]c1=O	> 100 µM
COc1ccc(-c2cn[nH]c2-c2cc(OC)c(OC)c(OC)c2)cc1OCc1ccccc1	> 100 µM
Cc1cc(C(=O)NCCN(C)C)c2nc3ccccc3cc2c1	> 31.3 µM
NC(N)=NCCC[C@H]1NC(=O)[C@@H](CCC(=O)O)NC(=O)[C@@H](CC(=O)O)NC(=O)[C@@H](CCC(=O)O)NC(=O)[C@H](Cc2c[nH]c3ccccc23)NC1=O (cyclo(W[dE][dD][dE][dR]))	> 7.5 µM
Cc1ccc(-c2cc(-c3ccccc3)nc(N)n2)c(O)c1	> 100 µM

TGI in this record for O=C1C=CC(=O)C(CNc2ccc(C(=O)OC34CC5CC(CC(C5)C3)C4)cc2)=C1Br : 32.7 µM

TGI in this record for COC(=O)[C@]12CC[C@H]3CN(C(=O)OCc4ccccc4)[C@H]([C@H]31)[C@H](c1ccccc1)N2 : > 100 µM

TGI in this record for O=C1/C(=C\c2cccc(Oc3ccccc3)c2)SC(c2ccccc2)N1c1ccccc1Cl (stereo not given) : > 100 µM

---

The compounds listed here are annotated with their TGI.
System: NCI-H522 lung
Assay: NCI tumour cell line growth inhibition, 48 h
Numbers only here, please. The scale is µM.

// worked examples, TGI included
CCOc1cc(F)c([N+](=O)[O-])cc1[N+](=O)[O-] 3.24
CC(C)C(=O)OCN(C)c1nc(N(C)COC(=O)C(C)C)nc(N(C)COC(=O)C(C)C)n1 36

Proceed to the following item.
TGI in this record for COc1cc(Nc2ccnc(NCCNc3ccnc4cc(Cl)ccc34)n2)cc(OC)c1 : 5.19

---

Test system: HOP-62 NSCLC
Assay: NCI tumour cell line growth inhibition, 48 h
Property label: TGI (µM)
Numbers only here, please. The scale is µM.

// worked examples, TGI included
Compound	Experimental target	TGI [µM]
O=c1cc(-c2ccc3ccccc3c2)[nH]c2ncc(Cl)cc12	HOP-62 NSCLC	29.6
O=C(CC1(O)C(=O)Nc2c(Cl)cc(Cl)cc21)c1ccc(Br)cc1 (stereo unspecified)	HOP-62 NSCLC	35.7
CCNCCCNc1c2ccccc2nc2ccccc12	HOP-62 NSCLC	2.37

Proceed to the following item.
TGI in this record for Nc1n[nH]c2cccc(C#Cc3cccc(NC(=O)c4ccc(N5CCOCC5)c(C(F)(F)F)c4)c3)c12 : 4.39

---

Test system: OVCAR-4 ovarian
Assay: NCI tumour cell line growth inhibition, 48 h
The compounds listed here are annotated with their GI50.

// worked examples, GI50 included
Compound	Experimental target	GI50
CCCCC(CCCCCC(CCCC)C1NC(C)Cc2cc(OC)c(OC)cc21)C1NC(C)Cc2cc(OC)c(OC)cc21 (stereo unspecified)	OVCAR-4 ovarian	1450 nM
N#CC1(Nc2ccc(Br)cc2)CCCC1	OVCAR-4 ovarian	> 100000 nM
ClCc1ccccc1Cn1cnc2c(Cl)nc(Cl)nc21	OVCAR-4 ovarian	1030 nM
C=CC(=O)N1CCN(CCCn2c(=O)c(-c3c(Cl)c(OC)cc(OC)c3Cl)cc3cnc(NC)nc32)CC1	OVCAR-4 ovarian	1140 nM
COc1cccc(C2=C(c3cn(C)c4ccc(Cl)cc34)C(=O)NC2=O)c1	OVCAR-4 ovarian	6960 nM

Proceed to the following item.
GI50 in this record for O=C1Nc2ccccc2/C1=C\c1c(-c2ccccc2)nc2ccccn12 : 6210 nM
